target: human PRMT6 (Homo sapiens); construct: Flag-PRMT6-His; made in house; host or cells: HEK 293F cells (BacMam baculovirus); assay: PRMT6 Biochemical Assay (3H-SAM Flashplate, peptide substrate); settings: Biochemical IC50 PRMT6, single experiment or average of multiple experiments
Sequence (Q96LA8 with tags, fused parts or gaps): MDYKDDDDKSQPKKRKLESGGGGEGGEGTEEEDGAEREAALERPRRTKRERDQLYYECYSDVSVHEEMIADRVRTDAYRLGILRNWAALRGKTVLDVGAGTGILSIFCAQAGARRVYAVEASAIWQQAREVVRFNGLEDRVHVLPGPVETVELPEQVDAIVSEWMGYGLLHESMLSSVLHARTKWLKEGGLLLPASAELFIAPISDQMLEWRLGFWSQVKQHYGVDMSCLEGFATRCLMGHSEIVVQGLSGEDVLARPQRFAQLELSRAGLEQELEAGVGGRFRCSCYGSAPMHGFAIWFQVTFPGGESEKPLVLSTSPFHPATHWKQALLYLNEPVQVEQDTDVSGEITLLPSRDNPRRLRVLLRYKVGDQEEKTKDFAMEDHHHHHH
endpoint.name: pIC50
# pIC50: negative log10 of molar concentration; output just the value

{"columns": ["compound", "system.tested", "quantitative.readout"],
 "data": [
  ["CNCCN(C)Cc1n[nH]c(C)c1-c1ccc(OC(C)C)cc1 [Compound 275]", "human PRMT6 (Homo sapiens)", 7.68],
  ["CNCCN(C)Cc1cn(Cc2ccccc2)nc1-c1ccc(OC(C)C)cc1 [Compound 217]", "human PRMT6 (Homo sapiens)", 7.38],
  ["CNCCN(C)Cc1c[nH]nc1-c1cc(F)ccc1F [Compound 50]", "human PRMT6 (Homo sapiens)", 7.37],
  ["CN(CCN)Cc1c[nH]nc1-c1cc(F)cc(Cl)c1 [Compound 121]", "human PRMT6 (Homo sapiens)", 8.13]
]}

# get_value(readout='pIC50', item= Cc1ccccc1-c1n[nH]cc1CN(C)CCN [Compound 161] )
7.02

* * *

molecular target: human PRMT1 (Homo sapiens); construct: GST-tagged PRMT1; made in house; host or cells: High Five insect cells (baculovirus); experiment: PRMT1 Biochemical Assay (3H-SAM Flashplate, peptide substrate); conditions: single experiment or average of multiple experiments
endpoint.name: IC50 (nM)
Your answer should be a plain number; it is taken to be in nM.

Solved entries:
{"columns": ["compound", "endpoint.name", "quantitative.readout"],
 "data": [
  ["CNCCN(C)Cc1nn(C)cc1-c1ccc(OCCCOC)cc1", "IC50", 176],
  ["CN(CCN)Cc1c[nH]nc1-c1ccc2c(c1)OCC(=O)N2C", "IC50", 121],
  ["CN(CCN)Cc1cnn(CCO)c1-c1ccc(F)cc1", "IC50", 1940],
  ["CNCCN(C)Cc1c[nH]nc1-c1cc(Cl)c(OCC2CC2)c(Cl)c1", "IC50", 2.21],
  ["COc1ccc(-c2n[nH]cc2CN(C)CCN)c(F)c1", "IC50", 44.1]
]}

For human PRMT1 (Homo sapiens), provide IC50 of CNCCN(C)Cc1c[nH]nc1-c1ccc(C(C)(C)COC)cc1 please.
34.9

* * *

pIC50 overview
Target: Human CARM1 (PRMT4) (Homo sapiens)
Construct: Flag-CARM1-His; made in house; host or cells: HEK 293F cells (BacMam baculovirus)
Sequence (Q86X55 1-585 isoform Q86X55-1): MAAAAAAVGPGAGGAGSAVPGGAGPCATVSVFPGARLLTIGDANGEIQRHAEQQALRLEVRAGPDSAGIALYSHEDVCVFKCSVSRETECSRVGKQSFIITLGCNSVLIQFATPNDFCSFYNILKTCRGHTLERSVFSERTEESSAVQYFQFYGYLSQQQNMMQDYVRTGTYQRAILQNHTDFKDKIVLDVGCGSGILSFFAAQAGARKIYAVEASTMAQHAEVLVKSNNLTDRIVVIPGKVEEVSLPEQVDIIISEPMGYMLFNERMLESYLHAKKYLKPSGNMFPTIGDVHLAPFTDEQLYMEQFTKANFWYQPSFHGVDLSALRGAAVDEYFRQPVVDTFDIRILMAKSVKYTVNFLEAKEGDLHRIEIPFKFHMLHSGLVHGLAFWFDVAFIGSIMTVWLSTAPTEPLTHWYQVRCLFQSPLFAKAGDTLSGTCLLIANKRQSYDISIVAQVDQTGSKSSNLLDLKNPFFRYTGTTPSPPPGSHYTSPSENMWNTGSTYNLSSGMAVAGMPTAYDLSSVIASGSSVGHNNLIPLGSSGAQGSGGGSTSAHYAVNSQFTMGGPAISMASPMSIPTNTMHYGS
Assay: CARM1 Biochemical Assay (3H-SAM Flashplate, peptide substrate)
Conditions: single experiment or average of multiple experiments
Where a name gives a salt, the structure may show the parent alone.
# pIC50: negative log10 of molar concentration; output just the value

Solved entries:
{"columns": ["compound", "quantitative.readout"],
 "data": [
  ["CNCCN(C)Cc1c[nH]nc1-c1cccc(NC(C)=O)c1 [Compound 42]", 5.65],
  ["CNCCN(C)Cc1c[nH]nc1-c1cccc(N)c1 [Compound 32]", 5.95],
  ["COc1ccc(-c2n[nH]cc2CN(C)CCN)cc1Cl [Compound 125]", 5.84]
]}

# get_value(readout='pIC50', item= CCN(CCN)Cc1c[nH]nc1-c1ccc(F)cc1 [Compound 62] )
6.17

# get_value(readout='pIC50', item= CNCCN(C)Cc1cn(CCOC)nc1-c1ccc(OC(C)C)cc1 [Compound 253, hydrochloride] )
5.65

* * *

test system: mono-methyl arginine in RKO cells; test: RKO Methylation Assay, In Cell Western (ICW) for mono-methyl arginine and DNA content; format: cell-based; settings: Homo sapiens, RKO, 72 h, RKO cells, 72 hours, mono-methyl arginine, percent activation; single experiment or average of multiple experiments; read-out: EC30 (In Cell Western data, Numerical)
EC30 overview

Solved entries:
{"columns": ["compound.string", "EC30"],
 "data": [
  ["COc1ccc(-c2n[nH]cc2CN(C)CCN)c(C)c1", "10.6 µM"],
  ["CNC(=O)c1cc(-c2n[nH]cc2CN(C)CCN)ccc1Oc1ccccc1", "15 µM"],
  ["CN(CCN)Cc1c[nH]nc1-c1ccc(C(F)(F)F)cc1F", "7.3 µM"],
  ["CNCCN(C)Cc1c[nH]nc1-c1ccc(Oc2cncnc2)cc1", "0.712 µM"]
]}

As a next step, examine the molecule that follows.
# get_value(readout='EC30', item= CN(CCN)Cc1c(-c2ccc(C#N)cc2)ncn1C )
> 20 µM

* * *

biological target: human PRMT1 (Homo sapiens, UniProt Q99873); construct: GST-tagged PRMT1; made in house; host or cells: High Five insect cells (baculovirus); test: PRMT1 Biochemical Assay (3H-SAM Flashplate, peptide substrate); details: single experiment or average of multiple experiments
Sequence (Q99873 with tags, fused parts or gaps): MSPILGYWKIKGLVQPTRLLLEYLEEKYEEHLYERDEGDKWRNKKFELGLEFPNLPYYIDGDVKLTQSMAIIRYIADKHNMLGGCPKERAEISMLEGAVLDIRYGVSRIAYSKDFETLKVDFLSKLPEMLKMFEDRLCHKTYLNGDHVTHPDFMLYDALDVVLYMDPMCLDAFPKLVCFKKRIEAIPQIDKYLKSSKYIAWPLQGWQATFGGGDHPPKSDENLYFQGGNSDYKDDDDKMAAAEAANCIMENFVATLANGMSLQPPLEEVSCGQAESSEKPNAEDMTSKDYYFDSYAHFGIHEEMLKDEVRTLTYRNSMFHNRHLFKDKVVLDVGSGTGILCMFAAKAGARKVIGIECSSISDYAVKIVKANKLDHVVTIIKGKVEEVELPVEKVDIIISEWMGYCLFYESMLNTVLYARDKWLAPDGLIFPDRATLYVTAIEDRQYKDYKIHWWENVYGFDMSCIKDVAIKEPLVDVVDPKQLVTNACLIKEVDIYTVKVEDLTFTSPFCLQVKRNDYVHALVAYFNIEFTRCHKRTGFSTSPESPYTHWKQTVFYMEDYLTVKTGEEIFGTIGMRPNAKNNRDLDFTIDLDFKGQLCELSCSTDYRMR
Where a name gives a salt, the structure may show the parent alone.
endpoint.name: pIC50
# pIC50: negative log10 of molar concentration; output just the value

{"columns": ["compound", "quantitative.readout"],
 "data": [
  ["CN(CCN)Cc1c[nH]nc1-c1ccc(Oc2ccccc2)c(C#N)c1", 8.37],
  ["CNCCN(C)Cc1c[nH]nc1-c1ccc(Oc2ccccc2)c(C(=O)NC)c1", 7.60],
  ["Cc1ccc(-c2n[nH]cc2CN(C)CCN)c(F)c1", 7.50]
]}

# get_value(readout='pIC50', item= CNCCN(C)Cc1cn(C2CCOC2)nc1-c1ccc(OC(C)C)cc1 (stereo not shown) )
7.09

# get_value(readout='pIC50', item= CNCCN(C)Cc1c[nH]nc1-c1ccc(OCCCOC)c(Cl)c1 )
8.26

# get_value(readout='pIC50', item= CNCCN(C)Cc1cn(Cc2ccncc2)nc1-c1ccc(OC(C)C)cc1 )
7.45

# get_value(readout='pIC50', item= CNCCN(C)Cc1cnn(C)c1-c1ccc(OC(C)C)cc1 [Compound 244, hydrochloride] )
8.06

# get_value(readout='pIC50', item= CNCCN(C)Cc1cn(C)nc1-c1ccc(OC(C)C)cc1 )
7.75

# get_value(readout='pIC50', item= CN(CCN)Cc1cnn(C)c1-c1ccc(F)cc1 )
6.82

# get_value(readout='pIC50', item= CNCCN(C)Cc1c[nH]nc1-c1ccc(Oc2ccccc2F)cc1 )
8.69

# get_value(readout='pIC50', item= CN(CCN)Cc1n[nH]cc1-c1ccc(OC(F)F)cc1 )
7.67

# get_value(readout='pIC50', item= CNCCN(C)Cc1c[nH]nc1-c1ccc(Oc2ccccc2)c(F)c1 )
8.47

# get_value(readout='pIC50', item= CN(CCN)Cc1c[nH]nc1-c1ccc(Oc2ccccc2F)cc1 )
8.88

# get_value(readout='pIC50', item= CCn1cc(CN(C)CCNC)c(-c2ccc(OC(C)C)cc2)n1 )
7.58

# get_value(readout='pIC50', item= CNCCN(C)Cc1c[nH]nc1-c1ccc(OC(C)C)c(F)c1 )
8.30

# get_value(readout='pIC50', item= CN(CCN)Cc1cnn(C2COC2)c1-c1ccc(F)cc1 )
6.36

# get_value(readout='pIC50', item= CN(CCN)Cc1n[nH]cc1-c1ccc(C2CCOCC2)cc1 )
7.70

# get_value(readout='pIC50', item= CN(CCN)Cc1c[nH]nc1-c1ccc(C(F)(F)F)cc1 )
8.24

* * *

molecular target: human PRMT1 (Homo sapiens); construct: GST-tagged PRMT1; made in house; host or cells: High Five insect cells (baculovirus); test: PRMT1 Biochemical Assay (3H-SAM Flashplate, peptide substrate); conditions: single experiment or average of multiple experiments
pIC50 overview
# pIC50: negative log10 of molar concentration; output just the value

{"columns": ["compound.string", "pIC50"],
 "data": [
  ["Cc1cccc(-c2n[nH]cc2CN(C)CCN)c1", 7.53],
  ["CN(CCN)Cc1c[nH]nc1-c1ccc(C(C)(C)C)cc1", 7.83],
  ["Cc1ccccc1-c1n[nH]cc1CN(C)CCN", 6.73],
  ["CN(CCN)Cc1n[nH]cc1-c1ccc(OC2CC2)cc1", 7.79]
]}

As a next step, examine the molecule that follows.
# get_value(readout='pIC50', item= CNCCN(C)Cc1cn[nH]c1-c1cc(F)cc(F)c1 )
7.44
